- assay-target: nikD Glu101Gln (Streptomyces tendae, UniProt Q9X9P9, E101Q)
- assay-info: biochemical

| compound | unit-abbrev | Kd |
| --- | --- | --- |
| O=C(O)c1ccccn1 [picolinate] | µM | 180 |

====

- assay-target: nikD Glu101Gln (Streptomyces tendae, UniProt Q9X9P9, E101Q)
- assay-info: Anaerobic reductive half-reaction with P2C
- Assay type: biochemical

| molecule | Kd / µM |
| --- | --- |
| O=C(O)C1=NCCCC1 [P2C, piperideine-2-carboxylate] | 1400 |

====

- assay-target: nikD Glu101Gln (Streptomyces tendae, UniProt Q9X9P9, E101Q)
- assay-info: biochemical
- Assay type: binding

| compound | Kd [µM] |
| --- | --- |
| O=C(O)c1ccccn1 [picolinate] | 151 |
| C[Se]CC(=O)O [methylselenoacetate] | 112 |
| O=C(O)C1=CCCCC1 [1-cyclohexenoate] | 0.9 |
